# target-desc: Large T antigen (Simian virus 40) (UniProt P03070)
# Sequence (P03070 whole entry, looked up): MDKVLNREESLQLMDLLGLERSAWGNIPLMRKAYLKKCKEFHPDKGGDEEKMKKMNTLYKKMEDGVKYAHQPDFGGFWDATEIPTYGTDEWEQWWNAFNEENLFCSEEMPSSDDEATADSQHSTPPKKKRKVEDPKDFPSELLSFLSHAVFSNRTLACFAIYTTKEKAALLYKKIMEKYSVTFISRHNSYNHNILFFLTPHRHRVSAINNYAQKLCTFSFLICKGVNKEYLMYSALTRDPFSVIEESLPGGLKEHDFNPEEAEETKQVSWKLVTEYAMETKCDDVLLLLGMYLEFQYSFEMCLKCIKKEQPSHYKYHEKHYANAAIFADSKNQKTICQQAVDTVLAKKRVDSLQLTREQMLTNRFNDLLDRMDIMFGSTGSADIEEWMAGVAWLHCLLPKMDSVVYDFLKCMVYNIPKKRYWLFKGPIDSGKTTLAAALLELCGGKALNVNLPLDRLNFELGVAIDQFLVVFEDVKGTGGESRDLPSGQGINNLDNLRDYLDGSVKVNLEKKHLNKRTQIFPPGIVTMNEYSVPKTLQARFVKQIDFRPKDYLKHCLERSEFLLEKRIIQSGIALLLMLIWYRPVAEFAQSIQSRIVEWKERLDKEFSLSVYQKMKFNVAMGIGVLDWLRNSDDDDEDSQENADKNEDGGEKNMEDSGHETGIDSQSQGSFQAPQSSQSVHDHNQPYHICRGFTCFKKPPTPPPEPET
# assay-procedure: SV40 large T antigen inhibitors, biochemical (AID 1903)
# test-conditions: SV40 large T antigen ATPase/helicase inhibition assay; at 20 µM; active compounds read high
Among all 310,000 compounds or so, about 1,200 (0.39%) were called active. These entries were drawn from the full list. Potency and affinity values are given separately.
readout-name: inhibition (%)
Unit % implied. Number only.

Example compounds with recorded inhibition:
CCCCn1c(O)c(N=NC(=O)c2ccccc2NS(=O)(=O)c2cccs2)c2ccccc21
14.3
Cc1c(Cl)cccc1NC(=O)Cn1cnc(S(=O)(=O)N2CCCC2)c1
12.7
O=C(O)C1CC(=O)N(Cc2ccc(F)cc2)C1 (stereo not given)
0.55
O=C(N/N=C/c1ccc([N+](=O)[O-])s1)C(O)c1ccccc1 (stereo not given)
4.11

Okay, next one:
inhibition for COc1ccc(C(=O)NNC(=O)C2CCCN(C3CC(=O)N(c4ccccc4)C3=O)C2)cc1 (stereo not given) is 9.48
